The measured values listed here are drawn from ChEMBL document CHEMBL2021913.

- System: Bacillus subtilis
- Assay notes: Antimicrobial activity against Bacillus subtilis 2250 at 35 degC after 18 to 24 hrs by NCCLS method based antimicrobial assay
- Assay type: functional
Endpoint label: MIC

Worked set:
INSERT INTO assay_data (smiles_entry, endpoint_value) VALUES
  ('Fc1ccc(/C(Cn2nnc3ccccc32)=N\Nc2nc(-c3ccc(F)cc3)cs2)cc1', '64 µg/mL'),
  ('FC(F)(F)c1cc(-c2csc(N/N=C(/Cn3nnc4ccccc43)c3ccc(Br)cc3)n2)cc(C(F)(F)F)c1', '64 µg/mL');

Any idea what its MIC is? The molecule is O=[N+]([O-])c1ccc(-c2csc(N/N=C(/Cn3nnc4ccccc43)c3ccc(F)cc3)n2)cc1
128 µg/mL

* * *

Provide the recorded MFC for the entries that follow.
- Test system: Candida albicans
- Assay notes: Antimicrobial activity against Candida albicans 3471 at 35 degC after 48 hrs by CLSI method based antimicrobial assay
- Assay type: functional
- Condition context: Candida albicans, 3471, 48 h; read-out: MFC99.9
One number for each entry, in µg/mL.

Worked set:
INSERT INTO assay_data (smiles_entry, assay_system, endpoint_label, endpoint_value) VALUES
  ('O=[N+]([O-])c1ccc(/C(Cn2nnc3ccccc32)=N\Nc2nc(-c3ccc(Br)cc3)cs2)cc1', 'Candida albicans', 'MFC', 64),
  ('Fc1ccc(/C(Cn2nnc3ccccc32)=N\Nc2nc(-c3ccc(Cl)cc3)cs2)cc1', 'Candida albicans', 'MFC', 64),
  ('O=[N+]([O-])c1ccc(/C(Cn2nnc3ccccc32)=N\Nc2nc(-c3ccc(F)cc3)cs2)cc1', 'Candida albicans', 'MFC', 256);

Any idea what its MFC is? The molecule is FC(F)(F)c1cc(-c2csc(N/N=C(/Cn3nnc4ccccc43)c3ccc(Cl)cc3)n2)cc(C(F)(F)F)c1
128

* * *

- Tested on: Staphylococcus aureus
- Assay notes: Antimicrobial activity against Staphylococcus aureus 2079 at 35 degC after 18 to 24 hrs by NCCLS method based antimicrobial assay
- Format: functional
Activity calls are given as the source filed them. No cut-off for these calls is given here.
Endpoint label: MIC

INSERT INTO measurements (smiles_entry, endpoint_value) VALUES
  ('Fc1ccc(/C(Cn2nnc3ccccc32)=N\Nc2nc(-c3ccc(F)cc3)cs2)cc1', '64 µg/mL'),
  ('Fc1ccc(/C(Cn2nnc3ccccc32)=N\Nc2nc(-c3ccc(Br)cc3)cs2)cc1', '64 µg/mL'),
  ('FC(F)(F)c1cc(/C(Cn2nnc3ccccc32)=N\Nc2nc(-c3ccc(Cl)cc3)cs2)cc(C(F)(F)F)c1', 'inactive'),
  ('Clc1ccc(/C(Cn2nnc3ccccc32)=N\Nc2nc(-c3ccc(Br)cc3)cs2)cc1', 'inactive'),
  ('O=[N+]([O-])c1ccc(/C(Cn2nnc3ccccc32)=N\Nc2nc(-c3cc(C(F)(F)F)cc(C(F)(F)F)c3)cs2)cc1', 'inactive');

Please supply MIC for each of the following items, keeping them in order.
1. O=[N+]([O-])c1ccc(-c2csc(N/N=C(/Cn3nnc4ccccc43)c3ccc(Cl)cc3)n2)cc1
2. O=[N+]([O-])c1ccc(/C(Cn2nnc3ccccc32)=N\Nc2nc(-c3ccc(Br)cc3)cs2)cc1
3. Fc1ccc(-c2csc(N/N=C(/Cn3nnc4ccccc43)c3ccc(Br)cc3)n2)cc1

["inactive", "64 µg/mL", "inactive"]

Please supply MIC for each of the following items, keeping them in order.
1. O=[N+]([O-])c1ccc(/C(Cn2nnc3ccccc32)=N\Nc2nc(-c3ccc([N+](=O)[O-])cc3)cs2)cc1
2. O=[N+]([O-])c1ccc(/C(Cn2nnc3ccccc32)=N\Nc2nc(-c3ccc(Cl)cc3)cs2)cc1

1. inactive
2. inactive

* * *

- System: Candida albicans
- Assay notes: Antimicrobial activity against Candida albicans 3471 at 35 degC after 48 hrs by CLSI method based antimicrobial assay
- Format: functional
- Condition context: Candida albicans, 3471, 48 h; read-out: MFC99.9
Endpoint label: MFC
Quote the value and follow it with the unit of measurement.

Worked set:
INSERT INTO assay_data (smiles_entry, endpoint_value) VALUES
  ('Fc1ccc(/C(Cn2nnc3ccccc32)=N\Nc2nc(-c3ccc(F)cc3)cs2)cc1', '32 µg/mL'),
  ('Brc1ccc(/C(Cn2nnc3ccccc32)=N\Nc2nc(-c3ccc(Br)cc3)cs2)cc1', '64 µg/mL'),
  ('O=[N+]([O-])c1ccc(/C(Cn2nnc3ccccc32)=N\Nc2nc(-c3cc(C(F)(F)F)cc(C(F)(F)F)c3)cs2)cc1', '256 µg/mL'),
  ('O=[N+]([O-])c1ccc(-c2csc(N/N=C(/Cn3nnc4ccccc43)c3ccc(F)cc3)n2)cc1', '64 µg/mL');

Any idea what its MFC is? The molecule is Fc1ccc(-c2csc(N/N=C(/Cn3nnc4ccccc43)c3cc(C(F)(F)F)cc(C(F)(F)F)c3)n2)cc1
128 µg/mL

* * *

- Test system: Aspergillus niger
- Assay notes: Ratio of MFC99.9 to MIC90 for Aspergillus niger 545 at 35 degC after 48 hrs by CLSI method based antimicrobial assay
- Format: functional
Provide the recorded Ratio for the entries that follow.
One number for each entry.

Worked set:
INSERT INTO assay_data (smiles_entry, endpoint_value) VALUES
  ('Fc1ccc(-c2csc(N/N=C(/Cn3nnc4ccccc43)c3cc(C(F)(F)F)cc(C(F)(F)F)c3)n2)cc1', 2),
  ('O=[N+]([O-])c1ccc(/C(Cn2nnc3ccccc32)=N\Nc2nc(-c3ccc(F)cc3)cs2)cc1', 2),
  ('FC(F)(F)c1cc(/C(Cn2nnc3ccccc32)=N\Nc2nc(-c3ccc(Cl)cc3)cs2)cc(C(F)(F)F)c1', 4);

Request: Ratio, test system Aspergillus niger, entry Fc1ccc(-c2csc(N/N=C(/Cn3nnc4ccccc43)c3ccc(Cl)cc3)n2)cc1
2

* * *

- Tested on: Aspergillus niger
- Assay notes: Antimicrobial activity against Aspergillus niger 545 at 128 ug/disc at 37 degC after 24 to 72 hrs by agar-well diffusion assay
- Type: functional
- Condition context: read-out: DIZ
Endpoint label: zone of inhibition at 128 µg/disc (mm)
Answers are plain numbers, in mm.

INSERT INTO assay_data (smiles_entry, unit_string, endpoint_value) VALUES
  ('O=[N+]([O-])c1ccc(/C(Cn2nnc3ccccc32)=N\Nc2nc(-c3cc(C(F)(F)F)cc(C(F)(F)F)c3)cs2)cc1', 'mm', 17.9);

Please supply zone of inhibition at 128 µg/disc for each of the following items, keeping them in order.
1. Fc1ccc(/C(Cn2nnc3ccccc32)=N\Nc2nc(-c3cc(C(F)(F)F)cc(C(F)(F)F)c3)cs2)cc1
2. Clc1ccc(/C(Cn2nnc3ccccc32)=N\Nc2nc(-c3ccc(Br)cc3)cs2)cc1
3. Clc1ccc(/C(Cn2nnc3ccccc32)=N\Nc2nc(-c3ccc(Cl)cc3)cs2)cc1
4. Fc1ccc(-c2csc(N/N=C(/Cn3nnc4ccccc43)c3ccc(Cl)cc3)n2)cc1

1. 17.5
2. 15.2
3. 18.2
4. 20.1

* * *

Provide the recorded MFC for the entries that follow.
- System: Candida albicans
- Assay notes: Antimicrobial activity against Candida albicans 3471 at 35 degC after 48 hrs by CLSI method based antimicrobial assay
- Assay type: functional
- Condition context: Candida albicans, 3471, 48 h; read-out: MFC99.9
Quote the value and follow it with the unit of measurement.

Worked set:
INSERT INTO assay_data (smiles_entry, endpoint_label, endpoint_value) VALUES
  ('O=[N+]([O-])c1ccc(/C(Cn2nnc3ccccc32)=N\Nc2nc(-c3ccc([N+](=O)[O-])cc3)cs2)cc1', 'MFC', '128 µg/mL'),
  ('Fc1ccc(-c2csc(N/N=C(/Cn3nnc4ccccc43)c3ccc(Br)cc3)n2)cc1', 'MFC', '128 µg/mL'),
  ('FC(F)(F)c1cc(/C(Cn2nnc3ccccc32)=N\Nc2nc(-c3cc(C(F)(F)F)cc(C(F)(F)F)c3)cs2)cc(C(F)(F)F)c1', 'MFC', '256 µg/mL'),
  ('Fc1ccc(/C(Cn2nnc3ccccc32)=N\Nc2nc(-c3cc(C(F)(F)F)cc(C(F)(F)F)c3)cs2)cc1', 'MFC', '64 µg/mL');

Please supply MFC for each of the following items, keeping them in order.
1. Fc1ccc(/C(Cn2nnc3ccccc32)=N\Nc2nc(-c3ccc(Br)cc3)cs2)cc1
2. Clc1ccc(/C(Cn2nnc3ccccc32)=N\Nc2nc(-c3ccc(Br)cc3)cs2)cc1
3. Clc1ccc(/C(Cn2nnc3ccccc32)=N\Nc2nc(-c3ccc(Cl)cc3)cs2)cc1
4. Fc1ccc(-c2csc(N/N=C(/Cn3nnc4ccccc43)c3ccc(Cl)cc3)n2)cc1

1: 256 µg/mL; 2: 128 µg/mL; 3: 32 µg/mL; 4: 64 µg/mL

* * *

Provide the recorded log10(MFC) for the entries that follow.
- Tested on: Aspergillus niger
- Assay notes: Antimicrobial activity against Aspergillus niger 545 at 35 degC after 48 hrs by CLSI method based antimicrobial assay
- Format: functional
- Condition context: Aspergillus niger, 545, 48 h; read-out: MFC99.9
Note the log scale: values are log10 of MFC expressed in µg/mL.

Worked set:
INSERT INTO measurements (smiles_entry, endpoint_label, endpoint_value) VALUES
  ('O=[N+]([O-])c1ccc(/C(Cn2nnc3ccccc32)=N\Nc2nc(-c3ccc(F)cc3)cs2)cc1', 'log10(MFC)', 1.81),
  ('Fc1ccc(-c2csc(N/N=C(/Cn3nnc4ccccc43)c3ccc(Br)cc3)n2)cc1', 'log10(MFC)', 1.81),
  ('O=[N+]([O-])c1ccc(-c2csc(N/N=C(/Cn3nnc4ccccc43)c3ccc(Cl)cc3)n2)cc1', 'log10(MFC)', 2.41),
  ('O=[N+]([O-])c1ccc(/C(Cn2nnc3ccccc32)=N\Nc2nc(-c3cc(C(F)(F)F)cc(C(F)(F)F)c3)cs2)cc1', 'log10(MFC)', 1.81),
  ('Clc1ccc(/C(Cn2nnc3ccccc32)=N\Nc2nc(-c3ccc(Br)cc3)cs2)cc1', 'log10(MFC)', 1.81),
  ('Fc1ccc(-c2csc(N/N=C(/Cn3nnc4ccccc43)c3ccc(Cl)cc3)n2)cc1', 'log10(MFC)', 1.51),
  ('Fc1ccc(/C(Cn2nnc3ccccc32)=N\Nc2nc(-c3ccc(F)cc3)cs2)cc1', 'log10(MFC)', 1.81),
  ('Clc1ccc(/C(Cn2nnc3ccccc32)=N\Nc2nc(-c3ccc(Cl)cc3)cs2)cc1', 'log10(MFC)', 1.51),
  ('Clc1ccc(-c2csc(N/N=C(/Cn3nnc4ccccc43)c3ccc(Br)cc3)n2)cc1', 'log10(MFC)', 2.11),
  ('Fc1ccc(/C(Cn2nnc3ccccc32)=N\Nc2nc(-c3ccc(Cl)cc3)cs2)cc1', 'log10(MFC)', 1.20);

Please supply log10(MFC) for each of the following items, keeping them in order.
1. FC(F)(F)c1cc(/C(Cn2nnc3ccccc32)=N\Nc2nc(-c3ccc(Cl)cc3)cs2)cc(C(F)(F)F)c1
2. Fc1ccc(/C(Cn2nnc3ccccc32)=N\Nc2nc(-c3cc(C(F)(F)F)cc(C(F)(F)F)c3)cs2)cc1
3. O=[N+]([O-])c1ccc(-c2csc(N/N=C(/Cn3nnc4ccccc43)c3ccc(F)cc3)n2)cc1
4. Fc1ccc(-c2csc(N/N=C(/Cn3nnc4ccccc43)c3cc(C(F)(F)F)cc(C(F)(F)F)c3)n2)cc1

[1.81, 2.11, 2.11, 1.81]
